test-description: Cytotoxicity against MDCK cells assessed as reduction in cell viability after 48 hrs by MTT assay
Type: cell-based, Canis lupus familiaris
assay-setup: dog
CC50 at 48 h listing for selected compounds.
Value expressed in µM; do not type the unit.

Reference set, count: 4
{"compound": "CC1(C)[C@@H]2CC[C@@]1(C)/C(=N/NC(=O)c1ccco1)C2", "uom": "µM", "reported": 1090}
{"compound": "CC12C=CC3(CN(c4ccccc4)C(=O)C3C1C(=O)N/N=C1\\C[C@H]3CC[C@]1(C)C3(C)C)O2 (mixture of isomers)", "uom": "µM", "reported": 277}
{"compound": "CCN1CC23C=CC(O2)C(C(=O)N/N=C2\\C[C@H]4CC[C@]2(C)C4(C)C)C3C1=O (mixture of isomers)", "uom": "µM", "reported": 775}
{"compound": "CC12C=CC3(O1)C(C(=O)N1c4ccccc4SC13)C2C(=O)N/N=C1\\C[C@H]2CC[C@]1(C)C2(C)C (mixture of isomers)", "uom": "µM", "reported": 123}

Next, consider the following compound.
Could you tell me which CC50 at 48 h is on file for CC12C=CC3(CN(Cc4ccccc4)C(=O)C3C1C(=O)N/N=C1\C[C@H]3CC[C@]1(C)C3(C)C)O2 (mixture of isomers) ?
227

---

System: Vaccinia virus
test-description: Antiviral activity against Vaccinia virus Copenhagen infected in African green monkey Vero cells assessed as inhibition of viral replication after 4 days by neural red dye-based spectrophotometric method
Type: functional, organism-based, Orthopoxvirus vaccinia
assay-setup: vero
measured-endpoint: IC50

Reference set, count: 5
{"compound": "CC12C=CC3(O1)C(C(=O)N1CCSC13)C2C(=O)N/N=C1\\C[C@H]2CC[C@]1(C)C2(C)C (mixture of isomers)", "test-target": "Vaccinia virus", "IC50": "Not Active"}
{"compound": "CC12C=CC3(O1)C(C(=O)N1CCCOC13)C2C(=O)N/N=C1\\C[C@H]2CC[C@]1(C)C2(C)C (mixture of isomers)", "test-target": "Vaccinia virus", "IC50": "Not Active"}
{"compound": "CC(=O)N/N=C1\\C[C@H]2CC[C@]1(C)C2(C)C", "test-target": "Vaccinia virus", "IC50": "Not Active"}
{"compound": "CC1(C)[C@@H]2CC[C@@]1(C)/C(=N/NC(=O)C(F)(F)F)C2", "test-target": "Vaccinia virus", "IC50": "Not Active"}
{"compound": "CC1(C)[C@@H]2CC[C@@]1(C)/C(=N/NC(=O)c1cccs1)C2", "test-target": "Vaccinia virus", "IC50": "Not Active"}

Could you tell me which IC50 is on file for CCN1CC23C=CC(O2)C(C(=O)N/N=C2\C[C@H]4CC[C@]2(C)C4(C)C)C3C1=O (mixture of isomers) ?
Not Active

Follow-up entry: CC12C=CC3(CN(Cc4ccccc4)C(=O)C3C1C(=O)N/N=C1\C[C@H]3CC[C@]1(C)C3(C)C)O2 (mixture of isomers)
Not Active

Follow-up entry: COCCN1CC23C=CC(O2)C(C(=O)N/N=C2\C[C@H]4CC[C@]2(C)C4(C)C)C3C1=O (mixture of isomers)
Not Active

Follow-up entry: CC12C=CC3(O1)C(C(=O)N1c4ccccc4SC13)C2C(=O)N/N=C1\C[C@H]2CC[C@]1(C)C2(C)C (mixture of isomers)
Not Active

---

test-description: Selectivity index, ratio of CC50 for MDCK cells to IC50 for Influenza A virus (A/Puerto Rico/8/34(H1N1)) infected in MDCK cells
Assay type: toxicity, cell-based
assay-setup: dog, read-out: Ratio CC50/IC50
hey, just use label 1 if measured selectivity ratio is less than 4, otherwise label 0

Below are worked cases with known answers.
{"compound": "CC(N)C12CC3CC(CC(C3)C1)C2 (configuration not stated) [RIMANTADINE]", "category-label": "label 0"}
{"compound": "CC12C=CC3(CN(c4ccccc4)C(=O)C3C1C(=O)N/N=C1\\C[C@H]3CC[C@]1(C)C3(C)C)O2 (mixture of isomers)", "category-label": "label 0"}
{"compound": "CC12C=CC3(CN(Cc4ccccc4)C(=O)C3C1C(=O)N/N=C1\\C[C@H]3CC[C@]1(C)C3(C)C)O2 (mixture of isomers)", "category-label": "label 1"}

Criterion: selectivity ratio strictly below 4. Is it met by CC1(C)[C@@H]2CC[C@@]1(C)/C(=N/NC(=O)c1ccco1)C2 ?
label 1

Follow-up entry: NC(=O)c1ncn([C@@H]2O[C@H](CO)[C@@H](O)[C@H]2O)n1 [RIBAVIRIN]
label 0

---

test-description: Cytotoxicity against African green monkey Vero cells assessed as reduction in cell viability after 4 days by neural red dye-based spectrophotometric method
assay-setup: chlorocebus sabaeus
measured-endpoint: CC50 at 96 h (µM)
Value expressed in µM; do not type the unit.

Reference set, count: 6
{"molecule": "CC1(C)[C@@H]2CC[C@@]1(C)/C(=N/NC(=O)c1cccs1)C2", "reported": 362}
{"molecule": "CC1(C)[C@@H]2CC[C@@]1(C)/C(=N/NC(=O)c1ccccc1)C2", "reported": 1430}
{"molecule": "CCCC(=O)N/N=C1\\C[C@H]2CC[C@]1(C)C2(C)C", "reported": 854}
{"molecule": "CC12C=CC3(O1)C(C(=O)N1c4ccccc4SC13)C2C(=O)N/N=C1\\C[C@H]2CC[C@]1(C)C2(C)C (mixture of isomers)", "reported": 67.2}
{"molecule": "CC12C=CC3(CN(c4ccccc4)C(=O)C3C1C(=O)N/N=C1\\C[C@H]3CC[C@]1(C)C3(C)C)O2 (mixture of isomers)", "reported": 600}
{"molecule": "CC1(C)[C@@H]2CC[C@@]1(C)/C(=N/NC(=O)c1ccco1)C2", "reported": 285}

Next, consider the following molecule.
Could you tell me which CC50 at 96 h is on file for CC1(C)[C@@H]2CC[C@@]1(C)/C(=N/NC(=O)c1ccc(Br)cc1)C2 ?
288

---

test-description: Selectivity index, ratio of CC50 for African green monkey Vero cells to IC50 for Vaccinia virus Copenhagen infected in African green monkey Vero cells
Assay type: toxicity
assay-setup: read-out: Ratio CC50/IC50
measured-endpoint: selectivity ratio

Reference set, count: 5
{"compound": "CCCC(=O)N/N=C1\\C[C@H]2CC[C@]1(C)C2(C)C", "selectivity ratio": 12}
{"compound": "CC1(C)[C@@H]2CC[C@@]1(C)/C(=N/NC(=O)c1ccco1)C2", "selectivity ratio": 7}
{"compound": "CC12C=CC3(CN(c4ccccc4)C(=O)C3C1C(=O)N/N=C1\\C[C@H]3CC[C@]1(C)C3(C)C)O2 (mixture of isomers)", "selectivity ratio": 97}
{"compound": "CC1(C)[C@@H]2CC[C@@]1(C)/C(=N/NC(=O)c1ccccc1)C2", "selectivity ratio": 280}
{"compound": "Nc1ccn(C[C@@H](CO)OCP(=O)(O)O)c(=O)n1 [CIDOFOVIR]", "selectivity ratio": 12}

Could you tell me which selectivity ratio is on file for CC1(C)[C@@H]2CC[C@@]1(C)/C(=N/NC(=O)c1ccc(Br)cc1)C2 ?
26

---

test-description: Cytotoxicity against MDCK cells assessed as reduction in cell viability after 48 hrs by MTT assay
Type: cell-based, Canis lupus familiaris
assay-setup: dog
measured-endpoint: CC50 at 48 h (mM)
Value expressed in mM; do not type the unit.

{"molecule": "CC1(C)[C@@H]2CC[C@@]1(C)/C(=N/NC(=O)c1cccs1)C2", "uom": "mM", "CC50 at 48 h": 1.03}

Next, consider the following molecule.
Could you tell me which CC50 at 48 h is on file for COCCN1CC23C=CC(O2)C(C(=O)N/N=C2\C[C@H]4CC[C@]2(C)C4(C)C)C3C1=O (mixture of isomers) ?
0.719

---

test-description: Selectivity index, ratio of CC50 for MDCK cells to IC50 for Influenza A virus (A/Puerto Rico/8/34(H1N1)) infected in MDCK cells
Type: toxicity, cell-based
assay-setup: dog, read-out: Ratio CC50/IC50
measured-endpoint: selectivity ratio

{"compound": "CCCC(=O)N/N=C1\\C[C@H]2CC[C@]1(C)C2(C)C", "reported": 2}
{"compound": "CC1(C)[C@@H]2CC[C@@]1(C)/C(=N/NC(=O)c1ccccc1)C2", "reported": 5}
{"compound": "CC12C=CC3(O1)C(C(=O)N1CCCOC13)C2C(=O)N/N=C1\\C[C@H]2CC[C@]1(C)C2(C)C (mixture of isomers)", "reported": 2}

Next, consider the following compound.
Could you tell me which selectivity ratio is on file for CC12C=CC3(O1)C(C(=O)N1c4ccccc4SC13)C2C(=O)N/N=C1\C[C@H]2CC[C@]1(C)C2(C)C (mixture of isomers) ?
3

---

test-description: Cytotoxicity against MDCK cells assessed as reduction in cell viability after 48 hrs by MTT assay
Type: cell-based, Canis lupus familiaris
assay-setup: dog
CC50 at 48 h listing for selected molecules.

{"structure": "CC1(C)[C@@H]2CC[C@@]1(C)/C(=N/NC(=O)c1ccc(Br)cc1)C2", "CC50 at 48 h": "> 822 µM"}

Could you tell me which CC50 at 48 h is on file for CCCC(=O)N/N=C1\C[C@H]2CC[C@]1(C)C2(C)C ?
> 1190 µM

Follow-up entry: CC1(C)[C@@H]2CC[C@@]1(C)/C(=N/NC(=O)c1ccccc1)C2
> 1050 µM
